# credit: ChEMBL document CHEMBL3885861

Species on record: Rattus norvegicus
assay.text: Open TG-GATES - Regimen: Daily Repeat
Type: toxicity, organism-based, Sprague-Dawley
Design: regimen Daily Repeat, gender Male, age 6 weeks
run.parameters: in vivo, po, 1000 mg/kg, 72 h, tissue Blood, route gavage, dose level High, time 3 day
reported.metric: Neu

Example entries and their recorded answers appear below.
1) CC(S)C(=O)NCC(=O)O (centres undefined)    20.8%
2) CCCCNC(=O)NS(=O)(=O)c1ccc(C)cc1 [TOLBUTAMIDE]    15.2%
3) O=C(O)c1ccccc1Nc1ccccc1    44.3%

Then this compound:
Which Neu value is on record for CC(=O)[C@@]1(O)CC[C@H]2[C@@H]3C=C(Cl)C4=CC(=O)CC[C@]4(C)[C@H]3CC[C@@]21C ? 18.2%
